# credit: the METLIN SMRT retention time set (Domingo-Almenara et al. 2019)

- Assay Info: gradient 5% acetonitrile 3 min, to 50% in 2 min, to 85% in 15 min, held 3 min, 100 µL/min
- Condition Context: column: Zorbax Extend-C18 2.1 x 50 mm; eluents: water / acetonitrile, 0.1% formic acid
Measurement Type: RP-LC retention time (s)

Consider the worked cases shown below.
{"columns": ["Compound", "Unit Abbrev", "RP-LC retention time"],
 "data": [
  ["O=C(Nc1cnc(N2CCCCC2)nc1)c1cc(F)cc(F)c1", "s", 984],
  ["CCCNC(=O)C1CCCN(c2nc3ncn(CC(=O)Nc4ccc(C)c(C)c4)c(=O)c3s2)C1 (stereo not given)", "s", 715],
  ["O=C(NCCn1nc(-c2cccs2)ccc1=O)c1ccc2ncsc2c1", "s", 629],
  ["CN1CCN(CCNC(=O)C2CN(S(=O)(=O)c3ccccc3)CC23CCCCC3)CC1 (stereo not given)", "s", 573]
]}

a: CCOc1ccccc1CNC(=O)Cc1cn(C)c2ncccc12
b: COc1ccc(-c2ncc3c(n2)CCN(C(=O)Nc2cccc(Cl)c2C)C3)cc1
Between a and b , whose recorded RP-LC retention time is greater? Indicate which entry you chose by stating its label.
b

P: CCCNC(=O)N1CCCCCCN(C)C(=O)CC1
Q: CCc1nc(-c2csc(S(=O)(=O)N3CCCC(C(=O)NC4CCCCCCC4)C3)c2)no1 (stereo not given)
Of P and Q , which shows the smaller RP-LC retention time value? Give the label of your selection.
P
(P: 662 s, Q: 1150 s)
